tested on: IGROV-1; assay: SRB colorimetric assay of cell growth and viability, IGROV-1; type: cell-based, human; settings: 48 hours exposure, SRB
Where a SMILES comes first, the peptide text is derived from it. Bridges are numbered along the chain shown (N, C = ends). [ ]: non-standard residue; d: D form. The star is where a group is joined. d(aIle) = CC[C@H](C)[C@@H](N)C(=O)O; d(aThr) = C[C@@H](O)[C@@H](N)C(=O)O; hCha = N[C@@H](CCC1CCCCC1)C(=O)O; Hexanoyl(5-Me) = CC(C)CCCC(=O)*; Orn = NCCC[C@H](N)C(=O)O; Dhb = C/C=C(\N)C(=O)O
Friendly reminder: GI50 below 200 nM is yes, at or above is no.

molecule: C/C=C1\NC(=O)[C@H](Cc2ccc([N+](=O)[O-])cc2)NC(=O)[C@@H](C(C)C)NC(=O)[C@@H]([C@@H](C)CC)NC(=O)[C@H](NC(=O)[C@H](NC(=O)[C@H](CCCN)NC(=O)[C@H]2CCCN2C(=O)[C@H](NC(=O)[C@@H](NC(=O)[C@@H](NC(=O)[C@H](NC(=O)CC[C@@H](C)CC)C(C)C)[C@@H](C)O)C(C)C)C(C)C)[C@@H](C)CC)[C@@H](C)OC(=O)[C@H](C(C)C)NC1=O [Compound 73, [Phe(4-NO2)^3, (4S)-MeHex^14]-KF]
assigned-label: yes

molecule: C/C=C1\NC(=O)[C@H](Cc2ccccc2)NC(=O)[C@@H](C(C)C)NC(=O)[C@@H]([C@@H](C)CC)NC(=O)[C@H](NC(=O)[C@H](NC(=O)[C@H](CCCNC(=O)C(F)(F)F)NC(=O)[C@H]2CCCN2C(=O)[C@H](NC(=O)[C@@H](NC(=O)[C@@H](NC(=O)[C@H](NC(=O)CC[C@@H](C)CC)C(C)C)[C@@H](C)O)C(C)C)C(C)C)[C@@H](C)CC)[C@@H](C)OC(=O)[C@H](C(C)C)NC1=O
assigned-label: yes

molecule: C/C=C1\NC(=O)[C@H](Cc2c[nH]c3ccccc23)NC(=O)[C@@H](C(C)C)NC(=O)[C@@H]([C@@H](C)CC)NC(=O)[C@H](NC(=O)[C@H](NC(=O)[C@H](CCCN)NC(=O)[C@H]2CCCN2C(=O)[C@H](NC(=O)[C@@H](NC(=O)[C@@H](NC(=O)[C@H](NC(=O)CCCC(C)C)C(C)C)[C@@H](C)O)C(C)C)C(C)C)[C@@H](C)CC)[C@@H](C)OC(=O)[C@H](C(C)C)NC1=O [Compound 68, [Trp^3]-KF] ({Hexanoyl(5-Me)}-[dV]TV[dV][dP][Orn][d(aIle)][d(aThr)][d(aIle)][dV]W[Dhb]V; ester 8-C)
assigned-label: yes

Criterion: GI50 strictly below 200 nM. Is it met by C/C=C1\NC(=O)[C@H](Cc2ccccc2)NC(=O)[C@@H](C(C)C)NC(=O)[C@@H]([C@@H](C)CC)NC(=O)[C@H](NC(=O)[C@H](NC(=O)[C@H](CCCN)NC(=O)[C@H]2CCCN2C(=O)[C@H](NC(=O)[C@@H](NC(=O)[C@@H](NC(=O)[C@H](NC(=O)CC[C@@H](C)CC)C(C)C)[C@@H](C)OC(=O)C(F)(F)F)C(C)C)C(C)C)[C@@H](C)CC)[C@@H](C)OC(=O)[C@H](C(C)C)NC1=O ?
no

Criterion: GI50 strictly below 200 nM. Is it met by C/C=C1\NC(=O)[C@H](CCC2CCCCC2)NC(=O)[C@@H](C(C)C)NC(=O)[C@@H]([C@@H](C)CC)NC(=O)[C@H](NC(=O)[C@H](NC(=O)[C@H](CCCN)NC(=O)[C@H]2CCCN2C(=O)[C@H](NC(=O)[C@@H](NC(=O)[C@@H](NC(=O)[C@H](NC(=O)CCCC(C)C)C(C)C)[C@@H](C)O)C(C)C)C(C)C)[C@@H](C)CC)[C@@H](C)OC(=O)[C@H](C(C)C)NC1=O [Compound 63] ({Hexanoyl(5-Me)}-[dV]TV[dV][dP][Orn][d(aIle)][d(aThr)][d(aIle)][dV][hCha][Dhb]V; ester 8-C) ?
yes

Criterion: GI50 strictly below 200 nM. Is it met by C/C=C1\NC(=O)[C@H](Cc2ccccc2)NC(=O)[C@@H](C(C)C)NC(=O)[C@@H]([C@@H](C)CC)NC(=O)[C@H](NC(=O)[C@H](NC(=O)[C@H](CCCNC(=O)C(F)(F)F)NC(=O)[C@H]2CCCN2C(=O)[C@H](NC(=O)[C@@H](NC(=O)[C@@H](NC(=O)[C@H](NC(=O)CC[C@@H](C)CC)C(C)C)[C@@H](C)OC(=O)C(F)(F)F)C(C)C)C(C)C)[C@@H](C)CC)[C@@H](C)OC(=O)[C@H](C(C)C)NC1=O ?
yes

Criterion: GI50 strictly below 200 nM. Is it met by C/C=C1\NC(=O)[C@H](Cc2ccccc2)NC(=O)[C@@H](C(C)C)NC(=O)[C@@H]([C@@H](C)CC)NC(=O)[C@H](NC(=O)[C@H](NC(=O)[C@H](CCCN)NC(=O)[C@@H]2CCCN2C(=O)[C@H](NC(=O)[C@@H](NC(=O)[C@@H](NC(=O)[C@H](NC(=O)CC[C@@H](C)CC)C(C)C)[C@@H](C)O)C(C)C)C(C)C)[C@@H](C)CC)[C@@H](C)OC(=O)[C@H](C(C)C)NC1=O [Compound 59, [Pro^9, (4S)-MeHex^14]-KF] ?
no

Criterion: GI50 strictly below 200 nM. Is it met by C/C=C1\NC(=O)[C@H](Cc2ccccc2)NC(=O)[C@@H](C(C)C)NC(=O)[C@@H]([C@@H](C)CC)NC(=O)[C@H](NC(=O)[C@H](NC(=O)[C@H](CCCNC(=O)CCCC[C@@H]2SC[C@@H]3NC(=O)N[C@@H]32)NC(=O)[C@H]2CCCN2C(=O)[C@H](NC(=O)[C@@H](NC(=O)[C@@H](NC(=O)[C@H](NC(=O)CCCC(C)C)C(C)C)[C@@H](C)O)C(C)C)C(C)C)[C@@H](C)CC)[C@@H](C)OC(=O)[C@H](C(C)C)NC1=O [Compound 99, [Orn(Biot)^8]-Kahalalide F] ?
no

Criterion: GI50 strictly below 200 nM. Is it met by C/C=C1\NC(=O)[C@H](Cc2ccc(Cl)c(Cl)c2)NC(=O)[C@@H](C(C)C)NC(=O)[C@@H]([C@@H](C)CC)NC(=O)[C@H](NC(=O)[C@H](NC(=O)[C@H](CCCN)NC(=O)[C@H]2CCCN2C(=O)[C@H](NC(=O)[C@@H](NC(=O)[C@@H](NC(=O)[C@H](NC(=O)CC[C@@H](C)CC)C(C)C)[C@@H](C)O)C(C)C)C(C)C)[C@@H](C)CC)[C@@H](C)OC(=O)[C@H](C(C)C)NC1=O [Compound 70, [Phe(3,4-Cl2)^3, (4S)-MeHex^14]-KF] ?
yes
